Documented Pre-emerge Herbicidal Activity, phytotoxicity rating (0-100), AMBEL across a set of molecules
System: common ragweed (Ambrosia artemisizfolia L., AMBEL)
METHOD_DESCRIPTION: Pre-emerge test, greenhouse herbicide activity screening
Type: in vivo
EXPERIMENTAL_CONTEXT: 63 g ai/ha; rated 14 days after application; 0 = no damage, 100 = complete death
Procedure: A standard greenhouse herbicide activity screening system was used to evaluate the herbicidal efficacy and crop safety of these test compounds. […] At 14 days after application of the test materials, phytotoxicity ratings were recorded. […]
PROPERTY_MEASURED: Pre-emerge Herbicidal Activity, phytotoxicity rating (0-100), AMBEL

>>> measured("COc1c(Cl)cc(F)c(-n2c(=O)cc(C(F)(F)F)n(C)c2=O)c1N(C(=O)c1ccc(F)c(F)c1)C(=O)c1ccc(F)c(F)c1")
100
>>> measured("COc1c(Cl)cc(F)c(-n2c(=O)cc(C(F)(F)F)n(C)c2=O)c1NC(=O)c1ccccc1Cl")
80
>>> measured("COc1c(Cl)cc(F)c(-n2c(=O)cc(C(F)(F)F)n(C)c2=O)c1NC(=O)c1ccc(F)c(F)c1")
100

* * *

Tested on: upland rice (Oryza sp., var. Tebonnet, RICE)
METHOD_DESCRIPTION: Post-emerge test, crop safety
Format: in vivo
EXPERIMENTAL_CONTEXT: 250 g ai/ha; phytotoxicity rating 0-100 (0 no damage, 100 complete death), 14 days after application
Documented Post-emerge Herbicidal Activity RICE (crop damage) across a set of molecules
PROPERTY_MEASURED: Post-emerge Herbicidal Activity RICE (crop damage)

>>> measured("Cn1c(C(F)(F)F)cc(=O)n(-c2c(F)cc(Cl)c(OC3CCCC3)c2N)c1=O [Compound 1-21]")
10
>>> measured("COc1c(Cl)cc(F)c(-n2c(=O)cc(C(F)(F)F)n(C)c2=O)c1NC(=O)C(C)(C)C [2-3]")
40
>>> measured("COc1c(Cl)cc(F)c(-n2c(=O)cc(C(F)(F)F)n(C)c2=O)c1NC(=O)C1CCCCC1 [2-19]")
20
>>> measured("COc1c(Cl)cc(F)c(-n2c(=O)c(N)c(C(F)(F)F)n(C)c2=O)c1N [Compound 1-10]")
0
>>> measured("Cn1c(C(F)(F)F)cc(=O)n(-c2c(F)cc(Cl)c(OCc3ccccc3)c2N)c1=O [Compound 1-22]")
40
>>> measured("CCOc1c(Cl)cc(F)c(-n2c(=O)cc(C(F)(F)F)n(C)c2=O)c1N [Compound 1-61]")
35

* * *

System: upland rice (Oryza sp., var. Tebonnet, RICE)
METHOD_DESCRIPTION: Pre-emerge test, crop safety
Format: in vivo
EXPERIMENTAL_CONTEXT: 250 g ai/ha; rating scale 0-100, 14 days after application
Documented Pre-emerge phytotoxicity rating, crop damage RICE across a set of compounds
PROPERTY_MEASURED: Pre-emerge phytotoxicity rating, crop damage RICE

>>> measured("CCCCCCOC(=O)C(Cl)Cc1c(OC)c(Cl)cc(F)c1-n1c(=O)cc(C(F)(F)F)n(C)c1=O (single isomer, unassigned)")
0
>>> measured("COc1c(Cl)cc(F)c(-n2c(=O)cc(C(F)(F)F)n(C)c2=O)c1CC(Cl)C(=O)OCCOc1ccccc1 (single isomer, unassigned) [14-28]")
0
>>> measured("COc1c(Cl)cc(F)c(-n2c(=O)cc(C(F)(F)F)n(C)c2=O)c1CC(Cl)C(=O)OCC(F)(F)C(F)(F)C(F)(F)F (single isomer, unassigned) [14-23]")
0

* * *

Documented phytotoxicity rating CORN (crop damage) across a set of compounds
Tested on: field corn (Zea mays L., var. Dekalb 535, CORN)
METHOD_DESCRIPTION: Pre-emerge test, crop safety
Format: in vivo
EXPERIMENTAL_CONTEXT: pre-emerge, 250 g ai/ha, 14 days after application, scale 0-100
PROPERTY_MEASURED: phytotoxicity rating CORN (crop damage)

>>> measured("COc1c(Cl)cc(F)c(-n2c(=O)cc(C(F)(F)F)n(C)c2=O)c1NC(=O)c1ccc2c(C#N)cccc2c1")
0
>>> measured("COc1c(Cl)cc(F)c(-n2c(=O)cc(C(F)(F)F)n(C)c2=O)c1NC(=O)CCc1cc(C)ccc1C [2-130]")
5
>>> measured("COc1c(Br)cc(F)c(-n2c(=O)cc(C(F)(F)F)n(C)c2=O)c1N(C(=O)C=Cc1ccccc1)C(=O)C=Cc1ccccc1 [2-178]")
0
>>> measured("COc1c(Cl)cc(F)c(-n2c(=O)cc(C(F)(F)F)n(C)c2=O)c1NC(=O)c1ccc2c(Br)cccc2c1")
0
>>> measured("COc1c(Cl)cc(F)c(-n2c(=O)cc(C(F)(F)F)n(C)c2=O)c1NC(=O)c1ccc2ccccc2c1OC")
0
>>> measured("COc1c(Br)cc(F)c(-n2c(=O)cc(C(F)(F)F)n(C)c2=O)c1NC(=O)C=Cc1ccccc1 [2-177]")
10
>>> measured("COc1c(Br)cc(F)c(-n2c(=O)cc(C(F)(F)F)n(C)c2=O)c1NC(=O)C=Cc1ccccc1 [2-175]")
0
>>> measured("COc1c(C#N)cc(F)c(-n2c(=O)cc(C(F)(F)F)n(C)c2=O)c1NC(=O)c1ccc2ccccc2c1 [2-181]")
5

* * *

Test system: field corn (Zea mays L., var. Dekalb 535, CORN)
METHOD_DESCRIPTION: Post-emerge test, crop safety
Format: in vivo
EXPERIMENTAL_CONTEXT: 63 g ai/ha; post-emerge; 14 days after application; rating scale 0-100
Rule for this label: MET means Post-emerge Herbicidal Activity CORN (crop damage rating) is less than 20; NOT MET means Post-emerge Herbicidal Activity CORN (crop damage rating) is at least 20.

>>> class_assignment("COCC(C)=NNc1c(OC)c(Cl)cc(F)c1-n1c(=O)cc(C(F)(F)F)n(C)c1=O")
"MET"
>>> class_assignment("CCOC(=O)NNc1c(OC)c(Cl)cc(F)c1-n1c(=O)cc(C(F)(F)F)n(C)c1=O")
"NOT MET"
>>> class_assignment("C#CCOC(=O)C(C)(Cl)Cc1c(OC)c(Cl)cc(F)c1-n1c(=O)cc(C(F)(F)F)n(C)c1=O (centres unmarked)")
"NOT MET"
>>> class_assignment("COc1cc(Cl)cc(Cl)c1-n1c(=O)cc(C(F)(F)F)n(C)c1=O")
"MET"
>>> class_assignment("COc1c(Cl)cc(F)c(-n2c(=O)cc(C(F)(F)F)n(C)c2=O)c1NN=Cc1ccc(F)cc1F")
"NOT MET"
>>> class_assignment("CCOC(=O)C(Cl)Cc1c(OC)c(Cl)cc(F)c1-n1nc(C(F)(F)F)n(C)c1=O (centres unmarked)")
"MET"
>>> class_assignment("C=CC=NNc1c(OC)c(Cl)cc(F)c1-n1c(=O)cc(C(F)(F)F)n(C)c1=O")
"NOT MET"
>>> class_assignment("COc1c(Cl)cc(F)c(-n2c(=O)cc(C(F)(F)F)n(C)c2=O)c1NNC(=O)c1ccc2ccccc2c1")
"NOT MET"
>>> class_assignment("COc1c(Cl)cc(F)c(-n2c(=O)cc(C(F)(F)F)n(C)c2=O)c1NNC(=O)Nc1ccc(F)cc1F")
"MET"
>>> class_assignment("COc1c(Cl)cc(F)c(-n2c(=O)cc(C(F)(F)F)n(C)c2=O)c1NN=Cc1ccc2ccccc2c1")
"NOT MET"
>>> class_assignment("CCCOC(=O)C(Cl)Cc1c(OCC)c(Cl)cc(F)c1-n1c(=O)cc(C(F)(F)F)n(C)c1=O (centres unmarked) [14-65]")
"MET"

* * *

Test system: redroot pigweed (Amaranthus retroflexus, AMARE)
METHOD_DESCRIPTION: Pre-emerge test, greenhouse herbicide activity screening
Format: in vivo
EXPERIMENTAL_CONTEXT: 250 g ai/ha; rating scale 0-100, 14 days after application
Documented Pre-emerge herbicidal activity, phytotoxicity rating AMARE across a set of compounds
PROPERTY_MEASURED: Pre-emerge herbicidal activity, phytotoxicity rating AMARE

>>> measured("COC(=O)C(Cl)Cc1c(OC)c(Cl)cc(F)c1-n1c(=O)cc(C(F)(F)F)n(C)c1=O (stereo not shown) [14-3]")
100
>>> measured("CCCCCCOC(=O)C(C)(Cl)Cc1c(OC)c(Cl)cc(F)c1-n1c(=O)cc(C(F)(F)F)n(C)c1=O (stereo not shown) [14-38]")
100
>>> measured("CCCCOC(=O)C(Cl)Cc1c(OC)c(Cl)cc(F)c1-n1c(=O)cc(C(F)(F)F)n(C)c1=O (single isomer, unassigned) [14-8]")
99
>>> measured("CCCCOC(=O)C(Cl)Cc1c(OC)c(Cl)cc(F)c1-n1c(=O)cc(C(F)(F)F)n(C)c1=O (single isomer, unassigned) [14-9]")
100
